Data origin: patent US20250270343A1

Target: T1, soluble human GPNMB (recombinant extracellular domain) (human, UniProt Q14956 23-498)
T1 construct: also called huGPNMB; recombinant human GPNMB extracellular domain; not shown: C-terminal polyhistidine or Avi-His tag
T1 sequence: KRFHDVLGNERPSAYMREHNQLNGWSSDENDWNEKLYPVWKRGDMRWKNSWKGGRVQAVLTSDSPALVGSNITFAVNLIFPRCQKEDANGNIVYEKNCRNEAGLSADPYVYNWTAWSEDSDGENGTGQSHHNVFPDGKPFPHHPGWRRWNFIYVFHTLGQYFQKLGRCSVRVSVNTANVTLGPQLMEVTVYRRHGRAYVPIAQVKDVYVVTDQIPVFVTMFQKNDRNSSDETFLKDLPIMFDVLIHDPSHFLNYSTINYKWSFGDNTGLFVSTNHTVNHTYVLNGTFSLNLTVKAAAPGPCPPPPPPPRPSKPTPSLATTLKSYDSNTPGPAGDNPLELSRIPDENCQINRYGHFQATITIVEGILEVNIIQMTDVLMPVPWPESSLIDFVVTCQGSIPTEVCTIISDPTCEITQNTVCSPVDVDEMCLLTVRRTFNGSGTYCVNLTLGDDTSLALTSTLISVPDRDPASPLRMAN
Experiment: SPR Biacore, IgG captured
measurement.type: koff (s⁻¹)
// return numeric value only (unit: s⁻¹, not printed)

binder	koff / s⁻¹
anti-GPNMB antibody GPN-88 (antibody, V domains shown) VH: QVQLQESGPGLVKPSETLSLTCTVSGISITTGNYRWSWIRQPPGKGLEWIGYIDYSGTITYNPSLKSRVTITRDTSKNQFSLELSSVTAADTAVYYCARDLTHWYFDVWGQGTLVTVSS VL: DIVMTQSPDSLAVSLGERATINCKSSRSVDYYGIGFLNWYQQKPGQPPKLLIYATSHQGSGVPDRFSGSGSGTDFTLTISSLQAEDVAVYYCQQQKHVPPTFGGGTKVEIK	0.00063

Now, please, on to the next binder.
Using the record for anti-GPNMB antibody GPN-87 (antibody, V domains shown) VH: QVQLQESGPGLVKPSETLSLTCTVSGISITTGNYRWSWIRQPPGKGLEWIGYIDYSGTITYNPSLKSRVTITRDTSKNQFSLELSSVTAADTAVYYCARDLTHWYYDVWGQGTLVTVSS VL: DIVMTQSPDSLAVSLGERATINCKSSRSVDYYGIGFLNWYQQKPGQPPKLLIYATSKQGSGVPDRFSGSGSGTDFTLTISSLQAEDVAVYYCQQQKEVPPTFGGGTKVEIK , report its koff.
0.0013
